These data points were gathered from PubChem BioAssay AID1159580.

Experiment: chemical genetic growth profiling, strain panel (AID 1159580);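 note: tested at 20 µM; growth read once vehicle control cultures reached saturation at 30 °C; 1 = growth at the plate median or of vehicle wells; lower values mean less growth of the strain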
Settings: S. cerevisiae deletion strains, growth OD, locus YGR078C, strain PAC10
In all, about 5,500 compounds went through this assay and about 2,000 (36%) were called active. Not shown: some 18% with an inconclusive outcome. Cut-off read from the data, not from the text of the source: active = normalized growth mostly below about 0.91 (no sharp cut-off); inconclusive = no clear call, values can overlap the other calls; inactive = mostly above about 0.92. Some of the results follow.
Bench note: report the call from 1 (yes) for active, 0 (no) for inactive

As a guide, the following entries are already answered.
compound: CCCCC(CC)CN=C(N)NC(N)=NCCCCCCN=C(N)NC(N)=NCC(CC)CCCC (stereo not drawn)
group: 1 (yes)
--
compound: CCOc1ccc2c(c1)C(C)=CC(C)(C)N2
group: 0 (no)
--
compound: CCOC(N)=O
group: 0 (no)

Q: I would be grateful if you could indicate the recorded call for "C/C(=N/NC1=NCCN1)c1ccc(F)cc1" .
Result: 0 (no)

Q: I would be grateful if you could indicate the recorded call for CC(C)CC(NP(=O)(O)O[C@@H]1O[C@@H](C)[C@H](O)[C@@H](O)[C@H]1O)C(=O)NC(Cc1c[nH]c2ccccc12)C(=O)O (stereo partly drawn) .
Result: 0 (no)

Q: I would be grateful if you could indicate the recorded call for "S=c1[nH]c2ccccc2[nH]1" .
Result: 0 (no)

Q: I would be grateful if you could indicate the recorded call for NC(N)=NOCCC(N)C(=O)O (stereo not drawn) .
Result: 0 (no)
